- protocol.text: qHTS RealTime-Glo MT Cell Viability Assay in HEK293 cells - 40 hour (AID 1224874); note: % is set by controls: 0 for no effect and ±100 for the full control effect; nearly all actives have a fitted effect of over 50% in size
- condition.set: RealTime-Glo luminescence; active compounds read low
Results filed as inconclusive are left out.
reported.endpoint: max response (%)

>>> numeric_value("CC[N+](C)(CC)CCOC(=O)C(O)(c1ccccc1)C1CCCCC1 (stereo unspecified)")
6.78
>>> numeric_value("COCCCN1CCC(NC(=O)c2cc(Cl)c(N)c3c2OCC3)CC1")
-14
>>> numeric_value("CCCCO")
1.62
>>> numeric_value("Nc1ccc([N+](=O)[O-])c(C(F)(F)F)c1")
-6.2
>>> numeric_value("O=C1CCCCCCCCCCCC(=O)OCCO1")
-16
>>> numeric_value("NCC(=O)CCC(=O)O")
7.89
>>> numeric_value("CCCCC1=NC2(CCCC2)C(=O)N1Cc1ccc(-c2ccccc2-c2nn[nH]n2)cc1")
-1.18
>>> numeric_value("CCn1cc(C(=O)O)c(=O)c2cnc(N3CCNCC3)nc21")
6.48
>>> numeric_value("c1cc(CCCc2ccncc2)ccn1")
-17.4
>>> numeric_value("CCCCCCCCCCCCCCOS(=O)(=O)O")
-13.8
>>> numeric_value("CCC(Cl)CCC(Cl)C(Cl)CC(Cl)C(Cl)C(Cl)CCl (stereo unspecified)")
0.988
>>> numeric_value("CC(C)(CO)[N+](=O)[O-]")
3.49
>>> numeric_value("C=C(C)C(=O)OCCO")
3.51
>>> numeric_value("O=C(O)C1(C(=O)Nc2ccc(Cl)cc2Cl)CC1")
-17.6
>>> numeric_value("CCCCCCCCCOS(=O)(=O)O")
4.38
>>> numeric_value("CCCCCC[C@@H](O)C/C=C\\CCCCCCCC(=O)OC")
0.122
>>> numeric_value("CC(=O)c1cccc([N+](=O)[O-])c1")
3.17
>>> numeric_value("CCCCCCCCCCCc1ccccc1")
-1.2
>>> numeric_value("C[C@@H]1C[C@H]2O[C@@]3(O[C@@H]2C(C)(C)O)[C@H](O)[C@@]2(C)[C@@H]4CC[C@H]5C(C)(C)[C@@H](O[C@@H]6OC[C@@H](O)[C@H](O)[C@H]6O)CC[C@@]56C[C@@]46CC[C@]2(C)[C@@H]13")
-15.4
>>> numeric_value("Brc1c2ccccc2c(Br)c2ccccc12")
1.72
>>> numeric_value("CN(Cc1ccc(C(C)(C)C)cc1)Cc1cccc2ccccc12")
-22.5
>>> numeric_value("COc1ccc(C(=O)Nc2nc3ccccc3c(NCc3ccccc3)c2C#N)cc1")
-18.2
>>> numeric_value("CN1C[C@H]2c3ccccc3Oc3ccc(Cl)cc3[C@@H]2C1")
-21.8
>>> numeric_value("CCOC(=O)C1=C[C@]2(CC)CCCN3CCc4c(n1c1ccccc41)[C@@H]32")
-21.2
>>> numeric_value("CCCCC")
0.575
>>> numeric_value("CC(=O)[O][Al]")
3.87

---

- protocol.text: qHTS assay for small molecule disruptors of the mitochondrial membrane potential - cell viability (AID 720634);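 note: human HepG2 liver cancer cells; % is set by controls: 0 for no effect and ±100 for the full control effect; nearly all actives have a fitted effect of over 20% in size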
- condition.set: HepG2 viability, ATP luminescence (CellTiter-Glo), 1 h; series mostly up to 83.2 µM
Inconclusive results are not listed. Active and inactive are the calls of the source. Calls follow the shape of the full dose curve.
reported.endpoint: outcome

>>> result("O=C1OC(CN2CCOCC2)CN1/N=C/c1ccc([N+](=O)[O-])o1 (stereo not drawn)")
"inactive"
>>> result("C#C[C@]1(O)CC[C@H]2[C@@H]3CCc4cc(OC5CCCC5)ccc4[C@H]3CC[C@@]21C")
"inactive"
>>> result("O=C(O)c1ccc(S(=O)(=O)O)cc1C(=O)O")
"inactive"
>>> result("COc1ccc(-c2nc3ccc(C4=NNC(=O)CC4C)cc3[nH]2)cc1 (stereo not drawn)")
"inactive"
>>> result("CCOc1ccc(O)cc1")
"inactive"
>>> result("C[C@H](CCC(=O)O)[C@H]1CC[C@H]2[C@@H]3CC[C@@H]4C[C@H](O)CC[C@]4(C)[C@H]3C[C@H](O)[C@]12C")
"inactive"
>>> result("CC(=O)c1ccc2c(c1)N(CCCN1CCC(CCO)CC1)c1ccccc1S2")
"inactive"
>>> result("C[Si](C)(CCCN)O[Si](C)(C)CCCN")
"inactive"
>>> result("CCCOC(C(=O)OC1CCN(C)CC1)(c1ccccc1)c1ccccc1")
"inactive"
>>> result("COc1cc2nc(N(C)CCCNC(=O)C3CCCO3)nc(N)c2cc1OC (stereo not drawn)")
"inactive"
>>> result("COC(C)OC")
"inactive"
>>> result("COc1ccnc(CS(=O)c2nc3ccc(OC(F)F)cc3[nH]2)c1OC (stereo not drawn)")
"inactive"
>>> result("Nc1ccc(S(=O)(=O)Nc2ccccc2)cc1")
"inactive"
>>> result("Cc1cccc(Nc2ccccc2)c1")
"inactive"
>>> result("CC(C)(C)OCC1CO1 (stereo not drawn)")
"inactive"
>>> result("CC(C)(CO)[N+](=O)[O-]")
"inactive"
>>> result("CCOC(=O)C(F)(F)F")
"inactive"
>>> result("CCN(CC)CCOC(=O)C(Cc1cccc2ccccc12)CC1CCCO1 (stereo not drawn)")
"inactive"
>>> result("CC(=O)c1cccc([N+](=O)[O-])c1")
"inactive"
>>> result("CC(=O)c1ccc2c(c1)N(CCCN(C)C)c1ccccc1S2")
"inactive"
>>> result("CCOC(=O)Cc1cccc2ccccc12")
"inactive"
>>> result("OC(CN1CCC(Cc2ccc(F)cc2)CC1)c1ccc(Cl)cc1 (stereo not drawn)")
"inactive"
>>> result("OCCNCc1ccccc1")
"inactive"
